Hey, just so you know, these numbers are from patent US20090285813A1.

Molecular target: human CD3 (human) (UniProt P07766)
Sequence (P07766 23-207): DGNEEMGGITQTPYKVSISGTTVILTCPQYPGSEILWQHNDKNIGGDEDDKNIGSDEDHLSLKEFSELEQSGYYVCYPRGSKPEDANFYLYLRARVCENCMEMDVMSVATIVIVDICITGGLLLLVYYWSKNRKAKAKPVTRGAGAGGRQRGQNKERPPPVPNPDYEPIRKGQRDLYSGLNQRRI
Test: cell-based or functional assay
Field: Apo-One Apoptosis Assay, 12.5 ng/ml, second block (ratio to Fc null). Provide a value for each of the binders that follow.
Reply with just the number.

GET /values?readout=Apo-One Apoptosis Assay, 12.5 ng/ml, second block (ratio to Fc null)&item= anti-CD3 HuFR antibody 7 (heavy chain BD20611, light chain BD21136) (antibody, part only; not given: Heavy stretch before framework 4, V domains shown, part only) VH, part: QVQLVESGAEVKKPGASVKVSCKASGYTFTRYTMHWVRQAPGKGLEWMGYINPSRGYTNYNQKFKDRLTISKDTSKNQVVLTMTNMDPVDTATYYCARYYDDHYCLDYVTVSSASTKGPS VL: DIQMTQSPSTLSASVGDRVTITCSASSSVSYMNWYQQKPGKAPKLLIYDTSKLASGIPDRFSGSGSGTDFTLTISRLEPEDFAVYYCQQWSSNPFTFGQGTKVEIKFGQGTKVEIKR
4.6

I have this binder here, anti-CD3 HuFR antibody 2 (heavy chain BD20613, light chain BD21131) (antibody, part only; not given: few VH framework 4 residues, V domains shown, part only) VH, part: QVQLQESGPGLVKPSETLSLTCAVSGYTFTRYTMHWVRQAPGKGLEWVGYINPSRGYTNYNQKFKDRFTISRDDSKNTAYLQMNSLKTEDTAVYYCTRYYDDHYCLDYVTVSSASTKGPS VL: DIQMTQSPSTLSASVGDRVTITCSASSSVSYMNWYQQKPGQAPRLLIYDTSKLASGVPDRFSGSGSGTDFTLKISRVEAEDVGVYYCQQWSSNPFTFGQGTKVEIKFGQGTKVEIKR , and I need its recorded Apo-One Apoptosis Assay, 12.5 ng/ml, second block (ratio to Fc null).
1.7

Reported Apo-One Apoptosis Assay, 12.5 ng/ml, second block (ratio to Fc null), binder anti-CD3 HuFR antibody 6 (heavy chain BD20611, light chain BD21135) (antibody, part only; not given: Heavy stretch before framework 4, V domains shown, part only) VH, part: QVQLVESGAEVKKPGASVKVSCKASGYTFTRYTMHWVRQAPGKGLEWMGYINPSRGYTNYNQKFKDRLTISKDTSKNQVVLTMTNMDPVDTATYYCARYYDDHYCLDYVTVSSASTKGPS VL: EIVMTQSPATLSVSPGERATLSCSASSSVSYMNWYQQKPGQAPRLLIYDTSKLASGVPDRFSGSGSGTDFTLTISSLQAEDVAVYYCQQWSSNPFTFGQGTKVEIKFGQGTKVEIKR : ____
2.6
